Origin of measurements: ChEMBL document CHEMBL1153743

Tested on: MCF7
protocol details: Cytotoxicity against human MCF7 cells after 48 hrs by MTT assay
Assay type: functional, cell-based
experimental context: MCF7, 48 h
parameter: IC50 (µM)
Write the answer as a number in µM, unit excluded.

CN1C(=O)[C@@](C)(O)[C@@H](O)[C@@H]1Cc1ccc(O)cc1    95.6

Now look at this one.
Reported IC50 of CN1C(=O)[C@@](C)(O)C(=O)[C@@H]1Cc1ccc(O)cc1 : 100
